FYI, the data here is from patent US20230390278A1.

experiment: Plasma levels of QC and VPA in blood of off-label treated AML patients, measured by LC/MS; type: in vivo, human; details: human, oral, Plasma VPA, Patient 1, day 163, QC 400 mg/day, VPA 300 + 600 mg/day
value_kind: concentration at 163 day (µM)
# unit: µM | format: bare number

Form field: reported concentration at 163 day of `CCCC(CCC)C(=O)O`
119

====

experiment: Plasma levels of QC and VPA in blood of off-label treated AML patients, measured by LC/MS; type: in vivo, human; settings: human, oral, Plasma VPA, Patient 3, day 1, QC 100 mg/day, VPA 300 + 300 mg/day, 3 h after intake
value_kind: concentration at 3 h (µM)
Give the number; µM is assumed, so skip it.

What measured concentration at 3 h goes with CCCC(CCC)C(=O)O [VPA, 2-propylvaleric acid] ?
120
